Test: Oral bioavailability in African green monkeys; 20-25
Assay type: ADME, organism-based
Details: chlorocebus aethiops, in vivo, read-out: Bioavailabiility
Recorded Endpoint: bioavailability (%)
Answers are plain numbers, in %.

Req: Please indicate bioavailability recorded for CCCCCNC(=O)c1coc([C@H]2[C@@H](Cc3ccccc3CCC(=O)O)[C@@H]3CC[C@H]2O3)n1 [IFETROBAN]
Resp: 20
